Assay: qHTS of pediatric cancer cell lines to identify multiple opportunities for drug repurposing: Primary screen for LAN-5 cells (AID 1347100)
Settings: LAN-5 neuroblastoma viability, CellTiter-Glo luminescence, 48 h; series mostly up to 46 µM
Procedure: Drug repurposing or repositioning has been offered as a strategy for drug development in oncology programs. […] [1] Shen, M et al. Quantitative high-throughput phenotypic screening of pediatric cancer cell lines identifies multiple opportunities for drug repurposing. […] Cells were assayed in growth media at a density of 500-1,000 cells/well. […] After a 15 min incubation at room temperature, samples were analyzed for luminescence intensity using a ViewLux High-throughput CCD imager equipped with clear filters.
Records with an inconclusive call do not appear. Active and inactive are the calls of the source. Calls follow the shape of the dose curve; as a rule, active = well fitted cell-killing curve with a large enough effect; inconclusive = small, poorly fitted or top-dose-only effect; inactive = no such curve, though single readings can be large or run the other way.
Outcomes: 1.0 (active), 0.0 (inactive)

molecule	class.assignment
C[C@@H]1CC2=CC(=O)CC[C@@H]2[C@H]2CC[C@@]3(C)[C@@H](CC[C@]3(C)O)[C@@H]21	0.0
NC(=O)CS(=O)C(c1ccccc1)c1ccccc1 (configuration not stated)	0.0
COc1ccc2c3c1O[C@H]1[C@H](O)CC[C@H]4[C@@H](C2)N(C)CC[C@@]341	0.0
CCN[C@@H](C)Cc1cccc(C(F)(F)F)c1	0.0
CCCCC/C=C\C/C=C\C/C=C\C/C=C\CCCC(=O)NCC(=O)O	0.0
CC(=O)NC1CCSC1=O (configuration not stated)	0.0
COC(=O)C(Cl)C(=O)OC	0.0
O=C(O)CCCc1ccc(N(CCCl)CCCl)cc1	1.0
COc1c2c(cc3c1OCO3)CCN(C)C2	0.0
O=c1[nH]c2ccccc2n1C1CCNCC1	0.0
C=CCC1(C(C)CC)C(=O)NC(=O)NC1=O (configuration not stated)	0.0
COc1cc(CCN)cc(OC)c1OC	0.0

###

Details: Ebola virus entry assay, blue channel (ratio component)
Measured potencies and affinities stand elsewhere. Activity calls are given as the source filed them. No rule for the calls is given here.

compound	outcome
O=C1CN=C(c2ccccc2)c2cc([N+](=O)[O-])ccc2N1	inactive
O=C(O)COc1nn(Cc2ccccc2)c2ccccc12	inactive
COc1cccc([C@@]2(O)CCCC[C@@H]2CN(C)C)c1	inactive
CC(CSC(=O)c1ccccc1)C(=O)N1C[C@@H](Sc2ccccc2)C[C@H]1C(=O)O (stereo partly specified)	inactive
Cc1cc2c(cc1S(N)(=O)=O)S(=O)(=O)CCC2	inactive
CC(=O)CC(c1ccccc1)c1c(O)c2ccccc2oc1=O (stereo unspecified)	inactive
CN1N=C(C(N)=O)CCC1=O	inactive
CCc1cc(C(N)=S)ccn1	inactive
C=CCn1c(=O)n([C@@H]2O[C@H](CO)[C@@H](O)[C@H]2O)c2nc(N)[nH]c(=O)c21	inactive
OC[C@@H](O)[C@@H](O[C@@H]1O[C@H](CO)[C@H](O)[C@H](O)[C@H]1O)[C@H](O)[C@@H](O)CO	inactive
Cc1cc(CCCOc2c(C)cc(-c3noc(C(F)(F)F)n3)cc2C)on1	inactive

###

Measured activity change, negative = inhibition accompanies every entry in the list below.
Assay: Primary qHTS to identify inhibitors of SARS-CoV-2 cell entry (AID 1645846); also: nearly all actives have a fitted effect of over 45% in size
Conditions: SARS-CoV-2 pseudovirus cell entry assay, luminescence; at 57.1 µM (top of the series) unless noted
Records with an inconclusive call do not appear.

molecule	unit.tag	activity change, negative = inhibition
O=C(N[C@H](CO)[C@H](O)c1ccc([N+](=O)[O-])cc1)C(Cl)Cl	%	2.2
c1ccc2c(CC3=NCCN3)cccc2c1	%	0.334
CC(=O)OC(C)OC(=O)C(C)c1ccc(-c2ccccc2)c(F)c1 (configuration not stated)	%	-21.2
S=P(N1CC1)(N1CC1)N1CC1	%	4.21
C1COC(NC(C2CC2)C2CC2)=N1	%	1.02
